- Tested on: CDC2L2
- Run parameters: concentration: 1 μM, replicates: in singlicate; n = 1;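 further: KINOMEscan kinase panel screen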
Property measured: %Inh

Worked examples, 2 compounds total:
given_smiles=COc1nccc(-c2c(-c3ccc(F)cc3)ncn2CCCN2CCOCC2)n1 target_system=CDC2L2 result_value=0%
given_smiles=CCc1ccc(-c2ccc3c(c2)-c2n[nH]cc2S(=O)(=O)N3C)cc1 target_system=CDC2L2 result_value=0%

Let us examine a further case.
For reference, reported %Inh for Cn1cnc2c(N)ncnc21 stands at 0%

----------
- Tested on: BRK
- Construct: gene PTK6
- Run parameters: concentration: 1 μM, replicates: in singlicate; n = 1
Property measured: %Inh (%)
Answer in %, number only, no unit symbol.

molecule=COc1ccc(CSc2nnc(-c3ccc4ncsc4c3)o2)cc1C(F)(F)F property_measured=%Inh scale_unit=% result_value=0
molecule="O=C1NC(=O)C(c2ccc(Cl)cc2)=C1Nc1ccc(O)cc1 [SB-340867]" property_measured=%Inh scale_unit=% result_value=0
molecule=CNC(=O)c1ccc(C)c(-n2c(C)cc(OCc3ccc(F)cc3F)c(Br)c2=O)c1 property_measured=%Inh scale_unit=% result_value=0

Note to self: %Inh of O=C(Nc1n[nH]c2nc(-c3cccs3)c(Br)cc12)C1CCCC1 [SB-743341] with BRK was 12

Note to self: %Inh of CNc1cc(-c2ccc3c(N)n[nH]c3c2)nc(N)n1 [GSK2224810] with BRK was 6

Note to self: %Inh of O=C1NC(=O)C(c2ccc(Cl)cc2)=C1Nc1cccc(Cl)c1 [SB-317651] with BRK was 0

Note to self: %Inh of O=C(Nc1n[nH]c2nc(-c3cccs3)c(Br)cc12)C1CC1 [SB-735297] with BRK was 0

Note to self: %Inh of COc1nccc(-c2c(-c3ccc(F)cc3)ncn2CCCN2CCOCC2)n1 [SB-282852] with BRK was 0

Note to self: %Inh of Cn1cnc2c(N)ncnc21 [SKF-97623] with BRK was 0

Note to self: %Inh of Cn1cncc1-c1cc2c(Nc3ccc(OCc4ccccc4)cc3)ncnc2cn1 [GW281179] with BRK was 19

Note to self: %Inh of NS(=O)(=O)c1cccc(N/C=C2\C(=O)Nc3ccc(S(=O)(=O)Cc4c(Cl)cccc4Cl)cc32)c1 [GSK398099] with BRK was 2

Note to self: %Inh of CC(C)c1cc(-c2ccc3c(N)n[nH]c3c2)nc(N)n1 [GSK2250882] with BRK was 14

----------
- Tested on: EPHA4
- Run parameters: concentration: 1 μM, replicates: in singlicate; n = 1
Property measured: %Inh (%)
Answer in %, number only, no unit symbol.

compound="Cc1ccc(NC(=O)Nc2ccccc2)cc1-c1ccc(C(=O)Nc2ccncc2)cc1 [GSK1398471]" property_measured=%Inh result_value=32
compound="Cc1ccccc1Cn1ccn2c(=O)cc(N3CCOCC3)nc12 [GSK2269905]" property_measured=%Inh result_value=19
compound="Cc1ccc(-c2nc(Nc3ccncc3)c3ccccc3n2)s1 [GSK189015]" property_measured=%Inh result_value=23
compound="CC[C@@H]1CO[C@H](C(=O)Nc2ccccc2)CN1c1cc(-c2ccc3c(N)n[nH]c3c2)nc(NC)n1 [GSK2376236]" property_measured=%Inh result_value=6

For reference, reported %Inh for Cc1ccccc1-c1cc(-c2c[nH]nc2-c2ccccn2)ccn1 [GW680061] stands at 11

For reference, reported %Inh for O=C(Nc1n[nH]c2nc(-c3cccs3)c(Br)cc12)C1CCCC1 [SB-743341] stands at 6

For reference, reported %Inh for O=C(Nc1n[nH]c2nc(-c3ccco3)c(Br)cc12)C1CCN(Cc2ccccc2)C1.O=C(O)[C@H](O)[C@@H](O)C(=O)O (centres unmarked) [SB-742034] stands at 1

For reference, reported %Inh for CC(=O)c1cccc(NC(=O)NC2CCN(c3ccnc(Nc4ccc(F)cc4)n3)C2)c1 (centres unmarked) [GSK1379710] stands at 6

----------
- Tested on: MYO3A
- Run parameters: concentration: 1 μM, replicates: in singlicate; n = 1
Property measured: %Inh (%)
Answer in %, number only, no unit symbol.

Worked examples, 4 compounds total:
compound="Cn1cncc1C(=O)NC1CCN(c2ccnc(Nc3ccc(F)cc3)n2)C1 (centres unmarked)" property_measured=%Inh scale_unit=% result_value=15
compound=CCn1c(-c2ccccc2)nc2cnccc21 property_measured=%Inh scale_unit=% result_value=28
compound=Cc1ccc(NC(=O)Nc2ccc(Cl)c(C(F)(F)F)c2)cc1-c1ccc(C(=O)Nc2ccncc2)cc1 property_measured=%Inh scale_unit=% result_value=60
compound="CC(=O)c1cccc(NC(=O)NC2CCN(c3ccnc(Nc4ccc(F)cc4)n3)C2)c1 (centres unmarked)" property_measured=%Inh scale_unit=% result_value=43

Let us examine a further case.
Note to self: %Inh of COc1ccc(Nc2nccc(N3CCC(NC(=O)C(C)c4ccc(Cl)cc4)CC3)n2)cc1 (centres unmarked) with MYO3A was 24

----------
- System: PIK3CG
- Run parameters: concentration: 1 μM, replicates: in singlicate; n = 1
Each item that follows carries a reported %Inh.

compound="Fc1ccc(-c2nc[nH]c2-c2ccncc2)cc1 [SB-217360]" result_value=0%

For reference, reported %Inh for Cc1ccc(NC(=O)Nc2ccccc2F)cc1-c1ccc(C(=O)Nc2ccncc2)cc1 [GSK1398477] stands at 0%

For reference, reported %Inh for COc1ccc(CSc2nnc(-c3ccc4nccn4c3)o2)cc1C(F)(F)F stands at 32%

For reference, reported %Inh for CS(=O)(=O)Cc1ccc(Nc2nccc(-c3c(-c4cccc(NC(=O)C5CCCCC5)c4)nn4ncccc34)n2)cc1 [GSK350559] stands at 4%

For reference, reported %Inh for CCn1c(-c2c(N)noc2C)nc2cnccc21 [SB-737856] stands at 0%

For reference, reported %Inh for CNC(=O)c1ccc(C)c(-n2c(C)cc(OCc3ccc(F)cc3F)c(Br)c2=O)c1 stands at 0%

----------
- System: TRPM6
- Run parameters: concentration: 1 μM, replicates: in singlicate; n = 1
Property measured: %Inh (%)
Answer in %, number only, no unit symbol.

Worked examples, 8 compounds total:
compound=Cc1ccccc1Cn1ccn2c(=O)cc(N3CCOCC3)nc12 result_value=2
compound=COc1ccc(CSc2nnc(-c3ccc4c(c3)CCO4)o2)cc1 result_value=0
compound=O=C1NC(=O)C(c2ccc(Cl)cc2)=C1Nc1ccc(O)cc1 result_value=9
compound=Cc1ccc(NC(=O)Nc2ccc(Cl)c(C(F)(F)F)c2)cc1-c1ccc(C(=O)Nc2ccncc2)cc1 result_value=6
compound=Fc1ccc(-c2nc[nH]c2-c2ccncc2)cc1 result_value=6
compound=CCCCc1nn2ncccc2c1-c1ccnc(NC2CC2)n1 result_value=25
compound=Cc1nccc(-c2c(-c3ccc(F)cc3)ncn2CCCN2CCOCC2)n1.Cl result_value=0
compound=Cc1ccc(NC(=O)c2ccc(Cl)cc2)cc1-c1ccc(C(=O)Nc2ccncc2)cc1 result_value=19

For reference, reported %Inh for CSc1ccc(-c2nc3n(c2-c2ccncc2)CCC3)cc1 stands at 0

For reference, reported %Inh for CCc1ccc(-c2ccc3c(c2)-c2n[nH]cc2S(=O)(=O)N3C)cc1 stands at 0

For reference, reported %Inh for Nc1cccc(-c2ccc3c(N)n[nH]c3c2)n1 stands at 18

----------
- System: MAP4K2
- Run parameters: concentration: 1 μM, replicates: in singlicate; n = 1
Property measured: %Inh (%)
Answer in %, number only, no unit symbol.

molecule="COc1ccc(Nc2nccc(N3CCC(NC(=O)C(C)c4ccc(Cl)cc4)C3)n2)cc1 (stereo not shown)" target_system=MAP4K2 property_measured=%Inh result_value=0
molecule=CNc1nc(-c2ccc3c(N)n[nH]c3c2)cc(N2C[C@@H](C(=O)NC3CCCCC3)OC[C@H]2C)n1 target_system=MAP4K2 property_measured=%Inh result_value=0
molecule=O=C(Nc1n[nH]c2cc(-c3ccsc3)ccc12)C1CC1 target_system=MAP4K2 property_measured=%Inh result_value=25
molecule="COC(=O)C(Cc1ccccc1)NC(=O)NC1CCN(c2ccnc(Nc3ccc(F)cc3)n2)C1 (stereo not shown)" target_system=MAP4K2 property_measured=%Inh result_value=0
molecule=Fc1ccc(-c2nc3n(c2-c2ccncc2)CCS3)cc1 target_system=MAP4K2 property_measured=%Inh result_value=0
molecule=CNCc1ccc2nc(NC(=O)c3ccc(C(C)(C)C)cc3)cn2c1 target_system=MAP4K2 property_measured=%Inh result_value=22

Let us examine a further case.
For reference, reported %Inh for O=c1cc(N2CCOCC2)nc2n(Cc3cccc(Cl)c3Cl)c3ccccc3n12 stands at 0
